The values you see were collected from ChEMBL document CHEMBL3885861.

Assign Lym to each entry below.
# Organism: Rattus norvegicus
# Experimental protocol: Open TG-GATES - Regimen: Daily Repeat
# Format: toxicity, organism-based, Sprague-Dawley
# Design: regimen Daily Repeat, gender Male, age 6 weeks
# Condition parameters: in vivo, po, 100 mg/kg, […], tissue Blood, route gavage, dose level Low, time 14 day
Give bare numbers, in %.

Consider the reported Lym for these compounds:
CCOc1ccc(NC(=O)CC(C)O)cc1 (stereo not given) : 74.6
COC1=CC(=O)C[C@@H](C)[C@]12Oc1c(Cl)c(OC)cc(OC)c1C2=O : 78
COc1ccc2[nH]c([S+]([O-])Cc3ncc(C)c(OC)c3C)nc2c1 (stereo not given) : 82.8
CCOC(=O)CCC(=O)O[C@H]1[C@H](O[C@@H]2[C@@H](C)[C@H](O[C@H]3C[C@@](C)(OC)[C@@H](O)[C@H](C)O3)[C@@H](C)C(=O)O[C@H](CC)[C@@](C)(O)[C@H](O)[C@@H](C)C(=O)[C@H](C)C[C@@]2(C)O)O[C@H](C)C[C@@H]1N(C)C [ERYTHROMYCIN ETHYLSUCCINATE] : 82

Could you now consider this next compound?
(Q) So what does the record say about Lym for NC(N)=Nc1nc(CSCCC(N)=NS(N)(=O)=O)cs1 ?
(A) 77.4

###

# Organism: Rattus norvegicus
# Experimental protocol: Open TG-GATES - Regimen: Daily Repeat
# Format: toxicity, organism-based, Sprague-Dawley
# Design: regimen Daily Repeat, gender Male, age 6 weeks
# Condition parameters: in vivo, po, 0 mg/kg, […], tissue Blood, route gavage, dose level Control, time 28 day
Class true (1): Mono at least 2%. Class false (0): Mono below 2%.

Known results for molecules:
CCOC(=O)CCC(=O)O[C@H]1[C@H](O[C@@H]2[C@@H](C)[C@H](O[C@H]3C[C@@](C)(OC)[C@@H](O)[C@H](C)O3)[C@@H](C)C(=O)O[C@H](CC)[C@@](C)(O)[C@H](O)[C@@H](C)C(=O)[C@H](C)C[C@@]2(C)O)O[C@H](C)C[C@@H]1N(C)C [ERYTHROMYCIN ETHYLSUCCINATE] : true (1)
NNC(=O)c1ccncc1 : true (1)
O=C(CCCN1CCC(O)(c2ccc(Cl)cc2)CC1)c1ccc(F)cc1 : true (1)
CC(C)OC(=O)C(C)(C)Oc1ccc(C(=O)c2ccc(Cl)cc2)cc1 [FENOFIBRATE] : true (1)
CN(C)CCCN1c2ccccc2CCc2ccccc21 : true (1)
CCOc1ccc(NC(=O)CC(C)O)cc1 (stereo not drawn) : true (1)
NC(N)=Nc1nc(CSCCC(N)=NS(N)(=O)=O)cs1 : true (1)
CN1C(=O)CN=C(c2ccccc2)c2cc(Cl)ccc21 : true (1)
CC1=C(/C=C/C(C)=C/C=C/C(C)=C/CO)C(C)(C)CCC1 : false (0)

Now for another entry.
(Q) Hi team, for CN(C)CCN(Cc1cccs1)c1ccccn1 , is the recorded Mono at or above 2%?
(A) false (0)

###

Assign LIVER to each entry below.
# Species on record: Rattus norvegicus
# Experimental protocol: Open TG-GATES - Regimen: Single
# Assay type: toxicity, organism-based, Sprague-Dawley
# Parameters: regimen Single, gender Male, age 6 weeks
# Condition parameters: in vivo, po, 30 mg/kg, 9 h, tissue Liver, route gavage, dose level Middle
Numbers only, in g.

Consider the reported LIVER for these compounds:
CN(C)CCCN1c2ccccc2CCc2ccccc21 : 8.4
CN(C)CCCN1c2ccccc2CCc2ccc(Cl)cc21 : 8.5
CC1=C(/C=C/C(C)=C/C=C/C(C)=C/CO)C(C)(C)CCC1 : 8.3

(Q) So what does the record say about LIVER for CN(C)CCN(Cc1cccs1)c1ccccn1 ?
(A) 7.5

###

# Species: Rattus norvegicus
# Experimental protocol: Open TG-GATES - Regimen: Daily Repeat
# Assay type: toxicity, organism-based, Sprague-Dawley
# Design: regimen Daily Repeat, gender Male, age 6 weeks
# Condition parameters: in vivo, po, 1000 mg/kg, […], tissue Plasma, route gavage, dose level High, time 14 day
Assign AST to each entry below.
Give bare numbers, in IU/L.

Consider the reported AST for these compounds:
COC1=CC(=O)C[C@@H](C)[C@]12Oc1c(Cl)c(OC)cc(OC)c1C2=O : 56
CCOC(=O)CCC(=O)O[C@H]1[C@H](O[C@@H]2[C@@H](C)[C@H](O[C@H]3C[C@@](C)(OC)[C@@H](O)[C@H](C)O3)[C@@H](C)C(=O)O[C@H](CC)[C@@](C)(O)[C@H](O)[C@@H](C)C(=O)[C@H](C)C[C@@]2(C)O)O[C@H](C)C[C@@H]1N(C)C [ERYTHROMYCIN ETHYLSUCCINATE] : 68.8
COc1ccc2[nH]c([S+]([O-])Cc3ncc(C)c(OC)c3C)nc2c1 (stereo unspecified) : 52.6
CC(C)OC(=O)C(C)(C)Oc1ccc(C(=O)c2ccc(Cl)cc2)cc1 [FENOFIBRATE] : 160.6

Batch lookup, AST per entry.
1. CCOc1ccc(NC(=O)CC(C)O)cc1 (stereo unspecified)
2. NC(N)=Nc1nc(CSCCC(N)=NS(N)(=O)=O)cs1

(A)
1. 73.4
2. 64.6

###

# Species: Rattus norvegicus
# Experimental protocol: Open TG-GATES - Regimen: Single
# Assay type: toxicity, organism-based, Sprague-Dawley
# Design: regimen Single, gender Male, age 6 weeks
# Condition parameters: in vivo, po, 0 mg/kg, 9 h, tissue Blood, route gavage, dose level Control
Experimental endpoint: Ret

Consider the reported Ret for these compounds:
NC(N)=Nc1nc(CSCCC(N)=NS(N)(=O)=O)cs1 : 7.5%
CCOC(=O)CCC(=O)O[C@H]1[C@H](O[C@@H]2[C@@H](C)[C@H](O[C@H]3C[C@@](C)(OC)[C@@H](O)[C@H](C)O3)[C@@H](C)C(=O)O[C@H](CC)[C@@](C)(O)[C@H](O)[C@@H](C)C(=O)[C@H](C)C[C@@]2(C)O)O[C@H](C)C[C@@H]1N(C)C [ERYTHROMYCIN ETHYLSUCCINATE] : 7.4%

Could you now consider this next compound?
(Q) So what does the record say about Ret for CN(C)CCN(Cc1cccs1)c1ccccn1 ?
(A) 7.7%

###

# Species on record: Rattus norvegicus
# Experimental protocol: Open TG-GATES - Regimen: Single
# Type: toxicity, organism-based, Sprague-Dawley
# Design: regimen Single, gender Male, age 6 weeks
# Condition parameters: in vivo, po, 10 mg/kg, 3 h, route gavage, dose level Low
Assign TERMINAL_BW to each entry below.

Consider the reported TERMINAL_BW for these molecules:
CN(C)CCCN1c2ccccc2CCc2ccccc21 : 203.3 g
CC1=C(/C=C/C(C)=C/C=C/C(C)=C/CO)C(C)(C)CCC1 : 201.8 g
CN(C)CCN(Cc1cccs1)c1ccccn1 : 185 g

Could you now consider this next molecule?
(Q) So what does the record say about TERMINAL_BW for CN(C)CCCN1c2ccccc2CCc2ccc(Cl)cc21 ?
(A) 216.3 g

###

# Species: Rattus norvegicus
# Experimental protocol: Open TG-GATES - Regimen: Single
# Format: toxicity, organism-based, Sprague-Dawley
# Set-up: regimen Single, gender Male, age 6 weeks
# Condition parameters: in vivo, po, 30 mg/kg, 24 h, tissue Plasma, route gavage, dose level Middle
Assign RALB to each entry below.
Numbers only, in g/dL.

Consider the reported RALB for these compounds:
CC1=C(/C=C/C(C)=C/C=C/C(C)=C/CO)C(C)(C)CCC1 : 3.2
CN(C)CCCN1c2ccccc2CCc2ccccc21 : 2.7
CN(C)CCN(Cc1cccs1)c1ccccn1 : 3

(Q) So what does the record say about RALB for CN(C)CCCN1c2ccccc2CCc2ccc(Cl)cc21 ?
(A) 2.6

###

# Organism: Rattus norvegicus
# Experimental protocol: Open TG-GATES - Regimen: Single
# Assay type: toxicity, organism-based, Sprague-Dawley
# Design: regimen Single, gender Male, age 6 weeks
# Condition parameters: in vivo, po, 0 mg/kg, 3 h, tissue Blood, route gavage, dose level Control
Class True: Mono at least 3%. Class False: Mono below 3%.

(Q) Hi team, for NC(N)=Nc1nc(CSCCC(N)=NS(N)(=O)=O)cs1 , is the recorded Mono at or above 3%?
(A) True

(Q) Also need CN(C)CCN(Cc1cccs1)c1ccccn1 , thanks.
(A) False

(Q) Also need C[C@@H]1C[C@H]2[C@@H]3CCC4=CC(=O)C=C[C@]4(C)[C@@]3(F)[C@@H](O)C[C@]2(C)[C@@]1(O)C(=O)CO , thanks.
(A) True

###

# Species: Rattus norvegicus
# Experimental protocol: Open TG-GATES - Regimen: Single
# Type: toxicity, organism-based, Sprague-Dawley
# Design: regimen Single, gender Male, age 6 weeks
# Condition parameters: in vivo, po, 100 mg/kg, 24 h, tissue Plasma, route gavage, dose level High
Experimental endpoint: DBIL

CN(C)CCN(Cc1cccs1)c1ccccn1 : 0.004 mg/dL

Batch lookup, DBIL per entry.
1. CN(C)CCCN1c2ccccc2CCc2ccc(Cl)cc21
2. CC1=C(/C=C/C(C)=C/C=C/C(C)=C/CO)C(C)(C)CCC1
3. CN(C)CCCN1c2ccccc2CCc2ccccc21

(A)
0.046 mg/dL
0.004 mg/dL
0.02 mg/dL
